These measurements were taken from ChEMBL document CHEMBL1147249.

Assay: Cytotoxicity against human Raji cells assessed as cell viability at 1000 molar ratio after 48 hrs by trypan blue staining method
Type: cell-based
Settings: read-out: Activity
READOUT TYPE: viability at 48 h, 1000 molar ratio (%)
Hi! Could you send only the number? It should be in %, unit omitted.

Recorded results for 5 molecules are shown here.
C[C@@H](CC[C@H]1OC1(C)C)[C@@H]1CC[C@]2(C)[C@H]3CC[C@@]4(C(C)(C)O)OCCC[C@H]4[C@]3(C)CC[C@@]12C [(24R)-24,25-EPOXYSUNPOLLENOL] : 60
CC(C)=CCC[C@H](C)[C@@H]1CC[C@]2(C)[C@H]3CC[C@@]4(C(C)(C)O)OCCC[C@H]4[C@]3(C)CC[C@@]12C [SUNPOLLENOL] : 70
C[C@@H](C/C=C/C(C)(C)O)[C@@H]1CC[C@]2(C)[C@H]3CC[C@@]4(C(C)(C)O)OCCC[C@H]4[C@]3(C)CC[C@@]12C [(23E)-23-DEHYDRO-25-HYDROXYSUNPOLLENOL] : 70
C[C@@H](CC[C@@H]1OC1(C)C)[C@@H]1CC[C@]2(C)[C@H]3CC[C@@]4(C(C)(C)O)OCCC[C@H]4[C@]3(C)CC[C@@]12C : 70
C[C@@H](CC[C@@H](O)C(C)(C)O)[C@@H]1CC[C@]2(C)[C@H]3CC[C@@]4(C(C)(C)O)OCCC[C@H]4[C@]3(C)CC[C@@]12C : 70

Next item in the queue.
Per the records, this molecule ( C[C@@H](CC[C@H](O)C(C)(C)O)[C@@H]1CC[C@]2(C)[C@H]3CC[C@@]4(C(C)(C)O)OCCC[C@H]4[C@]3(C)CC[C@@]12C [(24S)-24,25-DIHYDROXYSUNPOLLENOL] ) has viability at 48 h, 1000 molar ratio equal to 70
